Numbers sourced from patent US10858352B2.

- target_under_test: UniProt P08172
- Sequence (P08172 whole entry): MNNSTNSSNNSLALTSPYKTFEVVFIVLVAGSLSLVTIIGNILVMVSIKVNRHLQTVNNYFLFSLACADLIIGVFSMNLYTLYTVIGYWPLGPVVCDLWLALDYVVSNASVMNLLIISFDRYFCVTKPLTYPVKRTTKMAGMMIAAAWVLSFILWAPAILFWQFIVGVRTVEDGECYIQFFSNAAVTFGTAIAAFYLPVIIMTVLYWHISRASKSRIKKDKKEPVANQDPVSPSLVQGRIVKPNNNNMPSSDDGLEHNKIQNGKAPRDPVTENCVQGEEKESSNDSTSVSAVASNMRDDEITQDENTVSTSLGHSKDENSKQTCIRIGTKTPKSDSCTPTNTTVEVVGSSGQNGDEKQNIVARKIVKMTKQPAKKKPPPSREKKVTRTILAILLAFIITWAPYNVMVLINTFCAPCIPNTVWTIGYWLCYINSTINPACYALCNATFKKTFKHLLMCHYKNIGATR
- assay: Alphascreen Surefire phospho-ERK1/2 functional assay, M2
- Format: cell-based
- experimental_parameters: CHO, read-out: % Emax cf. ACh (M2)
measured_quantity: Emax (%)
Please reply with the bare figure in % and do not write the unit itself.

CCN(CC)C(=O)[C@H]1[C@@H]2CN(C3CC4COCC(C3)N4c3nc(C)no3)C[C@@H]21 (single isomer, unassigned) [9-2 Isomer 2]    27

Inquiry: Entry under review: Cc1noc(N2C3CCCC2CC(N2CCC4(CC2)CNC(=O)O4)C3)n1 (single isomer, unassigned) [8-3 Isomer 1] . Reported Emax?
Reply text: 4

Inquiry: Entry under review: CCC1(NC(=O)C2CCN(C3CC4CCC(C3)N4c3nc(C)no3)CC2)CCC1 (single isomer, unassigned) [12-8 Isomer 2] . Reported Emax?
Reply text: 33

* * *

- target_under_test: human muscarinic M4 receptor (Homo sapiens)
- Construct: expressed in transfected cells
- Sequence (P08173 1-479): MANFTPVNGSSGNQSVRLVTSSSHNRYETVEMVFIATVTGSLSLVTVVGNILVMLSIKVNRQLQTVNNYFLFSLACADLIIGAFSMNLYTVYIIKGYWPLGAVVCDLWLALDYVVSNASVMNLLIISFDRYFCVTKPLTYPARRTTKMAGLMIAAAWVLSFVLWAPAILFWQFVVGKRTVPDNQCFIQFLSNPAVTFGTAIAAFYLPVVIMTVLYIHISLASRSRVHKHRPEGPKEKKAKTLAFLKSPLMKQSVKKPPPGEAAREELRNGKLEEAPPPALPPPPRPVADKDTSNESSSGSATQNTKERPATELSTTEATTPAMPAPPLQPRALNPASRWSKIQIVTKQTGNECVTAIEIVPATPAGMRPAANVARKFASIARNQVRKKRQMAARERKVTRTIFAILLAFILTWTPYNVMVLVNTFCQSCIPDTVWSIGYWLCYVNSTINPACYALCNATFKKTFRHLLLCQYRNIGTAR
- assay: Alphascreen Surefire phospho-ERK1/2 functional assay, M4
- Type: cell-based
- experimental_parameters: CHO cells stably expressing human M4; agonist 5 min, 37° C.; read-out: pEC50 M4 (converted)
Below is a list of entries, each paired with its recorded EC50 value.
Please reply with the bare figure in nM and do not write the unit itself.

Cc1noc(N2CC3CCC2CC3N2CCC(n3cccn3)CC2)n1 (single isomer, unassigned) [7-1 Isomer 2]    85.1

Inquiry: Entry under review: CCN(C(C)=O)C1CCN(C2CCCN(c3nc(C)no3)CC2)CC1 (racemic) [10-11 Racemic mixture] . Reported EC50?
Reply text: 219

* * *

- target_under_test: human muscarinic M1 receptor (Homo sapiens, UniProt P11229)
- assay: Alphascreen Surefire phospho-ERK1/2 functional assay, M1
- Type: cell-based
- experimental_parameters: CHO, read-out: % Emax cf. ACh (M1), CHO cells stably expressing human M1; Emax relative to ACh
Response field label takes Yes when Emax is strictly below 80% and No in all other cases.

Example entries begin here.
Cc1noc(N2CCCC(N3CCC4(CC3)CNC(=O)O4)CC2)n1 (racemic) [10-3 Racemic mixture]    No
Cc1noc(N2CC3CC(N4CCC5(CC4)CNC(=O)O5)CC2C3)n1 (single isomer, unassigned) [11-3 Isomer 2]    Yes
CCN(CC)C(=O)[C@H]1[C@@H]2CN(C3CC4COCC(C3)N4c3nc(C)no3)C[C@@H]21 (single isomer, unassigned) [9-2 Isomer 2]    No
CCOC(=O)[C@H]1[C@@H]2CN(C3CC4(CCN(c5nc(C)no5)C4)C3)C[C@@H]21 (single isomer, unassigned) [2-3 Isomer 2]    Yes

Now examine the next entry.
Inquiry: State whether 80% exceeds Emax recorded for Cc1noc(N2CC3CC(N4CCC(n5cccn5)CC4)CC2C3)n1 (single isomer, unassigned) [11-1 Isomer 2] .
Reply text: Yes

* * *

- target_under_test: UniProtKB P11229
- Sequence (P11229 1-460): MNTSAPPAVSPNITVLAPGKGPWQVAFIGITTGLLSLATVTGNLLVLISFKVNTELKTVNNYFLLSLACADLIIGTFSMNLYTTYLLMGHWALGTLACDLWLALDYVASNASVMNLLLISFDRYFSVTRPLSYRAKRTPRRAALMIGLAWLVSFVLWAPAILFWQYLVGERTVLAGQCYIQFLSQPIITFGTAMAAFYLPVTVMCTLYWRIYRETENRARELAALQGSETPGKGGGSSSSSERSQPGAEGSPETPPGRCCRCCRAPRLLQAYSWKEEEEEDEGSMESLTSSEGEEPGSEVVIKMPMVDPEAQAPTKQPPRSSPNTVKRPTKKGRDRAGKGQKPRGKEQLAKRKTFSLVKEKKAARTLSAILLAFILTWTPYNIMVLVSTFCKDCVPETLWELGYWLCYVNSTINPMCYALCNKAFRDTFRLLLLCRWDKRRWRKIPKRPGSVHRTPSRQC
- assay: Alphascreen Surefire phospho-ERK1/2 functional assay, M1
- Format: cell-based
- experimental_parameters: pEC50 M1, CHO cells stably expressing human M1; agonist 5 min, 37° C.
Below is a list of entries, each paired with its recorded log10 EC50 value.
Plainly stated, the numbers are log10 of EC50 given in µM.

CCc1noc(N2C3CCC2CC(N2CCC4(CC2)CNC(=O)C4)C3)n1 (single isomer, unassigned) [6-3 Isomer 2]    -1.49
CC1(NC(=O)C2CCN(C3CC4CCC(C3)N4c3nc(C(F)(F)F)no3)CC2)CCC1 (single isomer, unassigned) [12-14 Isomer 2]    -1.73
Cc1noc(N2C3CCC2CC(N2CCC4(CC2)CNC(=O)C4)C3)n1 (single isomer, unassigned) [6-2 Isomer 1]    -0.80
Cc1noc(N2C3CCC2CC(N2CCC(C(=O)NCC4(C)CCC4)CC2)C3)n1 (single isomer, unassigned) [12-12 Isomer 2]    -2.43

Inquiry: Entry under review: O=C1CC2(CCN(C3CC4CCC(C3)N4c3nc(C(F)(F)F)no3)CC2)CN1 (single isomer, unassigned) [12-3 Isomer 1] . Reported log10 EC50?
Reply text: -1.50

Inquiry: Entry under review: Cc1noc(N2CCC3(CC(N4CCC(C#N)(c5ccccc5)CC4)C3)C2)n1 (single isomer, unassigned) [2-2 Isomer 2] . Reported log10 EC50?
Reply text: -0.13

* * *

- target_under_test: human muscarinic M4 receptor (Homo sapiens, UniProt P08173)
- Construct: expressed in transfected cells
- Sequence (P08173 1-479): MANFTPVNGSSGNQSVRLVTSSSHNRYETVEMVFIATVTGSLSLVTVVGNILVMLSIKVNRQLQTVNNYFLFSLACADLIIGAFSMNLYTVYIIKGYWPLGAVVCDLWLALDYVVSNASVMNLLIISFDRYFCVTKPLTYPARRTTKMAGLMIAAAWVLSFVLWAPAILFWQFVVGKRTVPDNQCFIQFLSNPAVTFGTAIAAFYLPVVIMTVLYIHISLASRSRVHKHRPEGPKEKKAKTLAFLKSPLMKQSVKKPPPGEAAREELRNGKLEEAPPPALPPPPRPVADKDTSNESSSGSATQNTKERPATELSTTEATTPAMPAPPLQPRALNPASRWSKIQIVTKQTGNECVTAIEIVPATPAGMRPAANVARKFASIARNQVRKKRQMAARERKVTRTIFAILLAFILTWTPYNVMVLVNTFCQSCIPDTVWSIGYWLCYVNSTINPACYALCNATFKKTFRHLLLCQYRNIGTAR
- assay: Alphascreen Surefire phospho-ERK1/2 functional assay, M4
- Format: cell-based
- experimental_parameters: CHO cells stably expressing human M4; Emax relative to ACh
measured_quantity: % Emax cf. ACh (M4)

CC1(NC(=O)C2CCN(C3CC4CCC(C3)N4c3nc(C(F)(F)F)no3)CC2)CCC1 (single isomer, unassigned) [12-14 Isomer 1]    (6) %
Cc1noc(N2C3CCC2CC(N2CCC4(CC2)CNC(=O)C4)C3)n1 (single isomer, unassigned) [6-2 Isomer 1]    (9) %

* * *

- target_under_test: human muscarinic M1 receptor (Homo sapiens)
- assay: Alphascreen Surefire phospho-ERK1/2 functional assay, M1
- Type: cell-based
- experimental_parameters: CHO cells stably expressing human M1; Emax relative to ACh
measured_quantity: % Emax cf. ACh (M1)

Worked examples, 5 compounds total:
Cc1noc(N2C3COCC2CC(N2C[C@@H]4[C@H](C2)[C@H]4C(=O)N(C)C(C)C)C3)n1 (single isomer, unassigned; isomer 2) [12-22 Isomer 2]    (102) %
Cc1noc(N2CCCC(N3CCC(N4CCCC4c4cnn(C)c4)CC3)CC2)n1 (single isomer, unassigned) [10-10 Isomer 1b]    (6) %
CCC1NC(=O)OC12CCN(C1CCCN(c3nc(C)no3)CC1)CC2 (single isomer, unassigned) [10-4 Isomer 3]    (81) %
Cc1noc(N2CCCC(N3CCC(N4CCCC4c4cnn(C)c4)CC3)CC2)n1 (single isomer, unassigned) [10-10 Isomer 2a]    (3) %
CCN(C)C(=O)[C@H]1[C@@H]2CN(C3CC4CCC(C3)N4c3nc(C)no3)C[C@@H]21 (single isomer, unassigned; isomer 2) [12-24 Isomer 2]    (102) %

Inquiry: What value of % Emax cf. ACh (M1) on human muscarinic M1 receptor (Homo sapiens) does Cc1noc(N2C3CCC2CC(N2CCC4(CC2)CNC(=O)C4)C3)n1 (single isomer, unassigned) [6-2 Isomer 2] have?
Reply text: (81) %

Inquiry: What value of % Emax cf. ACh (M1) on human muscarinic M1 receptor (Homo sapiens) does CCN(CC)C(=O)[C@H]1[C@@H]2CN(C3CC4CCC(C3)N4c3nc(C)no3)C[C@@H]21 (single isomer, unassigned; isomer 1) [12-25 Isomer 1] have?
Reply text: (102) %

Inquiry: What value of % Emax cf. ACh (M1) on human muscarinic M1 receptor (Homo sapiens) does Cc1noc(N2C3CCC2CC(N2C[C@@H]4[C@H](C2)[C@H]4C(=O)NC2(C)CCC2)C3)n1 (single isomer, unassigned; isomer 2) [12-13 Isomer 2] have?
Reply text: (102) %
